# Tested on: Frataxin (FXN) mRNA expression
# testMethodNotes: Effect of HDAC inhibitors on frataxin (FXN) mRNA expression in iPSC derived neuronal cells (qRT-PCR)
# Format: cell-based
# condition: iPSC derived neuronal cells differentiated 16 days, compound incubated 24 h
Where a name gives a salt, the structure may show the parent alone.
endpointName: Fold Induction

>>> df
                                    molecule                    testedsystem  valuemeasured
 0  C[C@@H]1CN(Cc2ccc(C(=O)Nc3ccccc3N)cc2)C[C@H](C)N1CC(C)(C)O  Frataxin (FXN) mRNA expression            1.5
 1  CC(C)=CC1CCN(Cc2ccc(C(=O)Nc3ccccc3N)cc2)CC1  Frataxin (FXN) mRNA expression            1.5
 2  CC(C)(O)CN1CCN(Cc2ccc(C(=O)Nc3ccccc3N)cc2)CC1(C)C  Frataxin (FXN) mRNA expression            1.6
 3  CC(C)(O)CN1CCCC(Cc2ccc(C(=O)Nc3ccccc3N)cc2)CC1.Cl.Cl (centres unmarked)  Frataxin (FXN) mRNA expression            2.1
 4  CC(C)(O)CN1CCN(Cc2ccc(C(=O)Nc3ccccc3N)cc2)CC1.Cl.Cl.Cl  Frataxin (FXN) mRNA expression            1.8
 5  Cl.Cl.Nc1ccccc1NC(=O)c1ccc(CN2CCCCC2)cc1  Frataxin (FXN) mRNA expression            0.9
 6  CC(C)(C)CN1CCC(Cc2ccc(C(=O)Nc3ccc(F)cc3N)cc2)CC1  Frataxin (FXN) mRNA expression            1.3
 7  C[C@@H]1CN(Cc2ccc(C(=O)Nc3ccccc3N)cc2)CCN1CC(C)(C)O  Frataxin (FXN) mRNA expression            2.0
 8  CC(C)(O)CN1CCC(Cc2ccc(C(=O)Nc3ccc(F)cc3N)cc2)CC1  Frataxin (FXN) mRNA expression            1.2
 9  Cl.Cl.Cl.Nc1ccccc1NC(=O)c1ccc(CN2CCN(CC3CC3)CC2)cc1  Frataxin (FXN) mRNA expression            1.8
10  CC1(C)CN(CC2CC2)CCN1Cc1ccc(C(=O)Nc2ccccc2N)cc1  Frataxin (FXN) mRNA expression            1.7
11  CC1(C)CCN(Cc2ccc(C(=O)Nc3ccccc3N)cc2)CC1.Cl.Cl  Frataxin (FXN) mRNA expression            1.4
12  C[C@@H]1CN(Cc2ccc(C(=O)Nc3ccccc3N)cc2)[C@@H](C)CN1CC1CC1 (racemic)  Frataxin (FXN) mRNA expression            1.8
13          Nc1ccccc1NC(=O)c1ccc(CN2CCC2)cc1  Frataxin (FXN) mRNA expression            1.5
14  C[C@H]1CN(CC(C)(C)O)CCN1Cc1ccc(C(=O)Nc2ccccc2N)cc1  Frataxin (FXN) mRNA expression            1.7
15  C[C@@H]1CN(Cc2ccc(C(=O)Nc3ccccc3N)cc2)C[C@H](C)N1CC1CC1  Frataxin (FXN) mRNA expression            1.3
16  Nc1cc(F)ccc1NC(=O)c1ccc(CC2CCN(CC3CC3)CC2)cc1  Frataxin (FXN) mRNA expression            1.2
17  Nc1ccccc1NC(=O)c1ccc(CN2CCCN(CC3CC3)CC2)cc1 [Compound 485, trihydrochloride]  Frataxin (FXN) mRNA expression            2.2
18  CC(C)(O)CN1CCCN(Cc2ccc(C(=O)Nc3ccccc3N)cc2)CC1  Frataxin (FXN) mRNA expression            1.9
19  C[C@H]1CN(CC2CC2)CCN1Cc1ccc(C(=O)Nc2ccccc2N)cc1  Frataxin (FXN) mRNA expression            1.6

Every entry's value here was drawn from patent US20200087314A1.
